system: Malme-3M; experiment: NCI tumour cell line growth inhibition, 48 h
Activity calls are given as the source filed them. Cut-off read from the data, not from the text of the source: active = GI50 up to about 1.1 µM and inactive = higher.

COMPOUND	GI50
CCOC(C[C@H](O[Si](C)(C)C(C)(C)C)[C@H]1COC(=S)S1)OCC	> 100 µM (inactive)
CC(=O)N(C(C)=O)n1nc2c(n1)C(=O)c1ccccc1C2=O	68.1 µM (inactive)
O=C(NC1(C(=O)NNc2nnc(-c3ccccc3)c(-c3ccccc3)n2)C(c2ccccc2)C(c2ccccc2)=NN1c1ccccc1)c1ccccc1 (centres undefined)	64.1 µM (inactive)
Cn1c2ccccc2c2c3c(c4c5ccccc5n(C5OC(CO)C(O)C(O)C5O)c4c21)C(=O)OC3=O (centres undefined)	> 100 µM (inactive)
